Where a SMILES comes first, the peptide text is derived from it. Bridges are numbered along the chain shown (N, C = ends). [ ]: non-standard residue; d: D form. R8 = C=CCCCCCC[C@@](C)(N)C(=O)O; S5 = C=CCCC[C@](C)(N)C(=O)O
Measured quantity: solubility

// field: solubility; key: CC[C@H](C)[C@H](N)C(=O)N[C@@H](CO)C(=O)N[C@@H](Cc1ccccc1)C(=O)N[C@]1(C)CCCCCC/C=C\CCC[C@@](C)(C(=O)N[C@@H](CCC(=O)O)C(=O)N[C@@H](CO)C(=O)NCC(=O)N[C@@H](CO)C(N)=O)NC(=O)[C@H](Cc2ccc(O)cc2)NC(=O)[C@H](Cc2ccc(O)cc2)NC(=O)[C@H](CC(=O)O)NC(=O)[C@H](CC(C)C)NC(=O)[C@H](CC(C)C)NC(=O)[C@H](CCC(=O)O)NC1=O [NYAD-36] (H-ISF[R8]ELLDYY[S5]ESGS-NH2; staple (Z) 4-11) ; value = < 100 µM

---

Test system: HIV-1 IIIB
Type: cell-based
Where a SMILES comes first, the peptide text is derived from it. Bridges are numbered along the chain shown (N, C = ends). [ ]: non-standard residue; d: D form. S5 = C=CCCC[C@](C)(N)C(=O)O
Measured IC50 values are reported for all entries that follow.
Please respond with the number in µM and leave the unit unwritten.

[[record]]
molecule = "CC[C@H](C)[C@H](N)C(=O)N[C@H](C(=O)N[C@@H](Cc1ccccc1)C(=O)N[C@@]1(C)CCC/C=C\\CCC[C@@](C)(C(=O)N[C@@H](Cc2ccc(O)cc2)C(=O)N[C@@H](Cc2ccc(O)cc2)C(=O)NCC(=O)N[C@@H](CCCNC(=N)N)C(N)=O)NC(=O)[C@H](CC(C)C)NC(=O)[C@H](Cc2c[nH]c3ccccc23)NC(=O)[C@H](CC(=O)O)NC1=O)[C@@H](C)O [NYAD-31] (H-ITF[S5]DWL[S5]YYGR-NH2; staple (Z) 4-8; N-terminus and C-terminus assumed)"
output_unit = "µM"
recorded_measurement = 13.5

[[record]]
molecule = "CC[C@H](C)[C@H](N)C(=O)N[C@@H](CO)C(=O)N[C@@H](Cc1ccccc1)C(=O)N[C@@]1(C)CCC/C=C\\CCC[C@@](C)(C(=O)N[C@@H](Cc2ccc(O)cc2)C(=O)N[C@@H](Cc2ccc(O)cc2)C(=O)NCC(=O)N[C@@H](CCCNC(=N)N)C(N)=O)NC(=O)[C@H](CC(C)C)NC(=O)[C@H](CC(C)C)NC(=O)[C@H](CCC(=O)O)NC1=O [NYAD-15] (H-ISF[S5]ELL[S5]YYGR-NH2; staple (Z) 4-8; N-terminus and C-terminus assumed)"
output_unit = "µM"
recorded_measurement = 4.86


Please fill in: IC50 reported for CC[C@H](C)[C@H](N)C(=O)N[C@@H](CO)C(=O)N[C@@H](Cc1ccccc1)C(=O)N[C@@]1(C)CCC/C=C\CCC[C@@](C)(C(=O)N[C@@H](Cc2ccc(O)cc2)C(=O)N[C@@H](Cc2ccc(O)cc2)C(=O)NCC(=O)N[C@@H](CCC(=O)O)C(=O)N[C@@H](CO)C(=O)NCC(=O)N[C@@H](CO)C(N)=O)NC(=O)[C@H](CC(C)C)NC(=O)[C@H]([C@@H](C)CC)NC(=O)[C@H](CCC(=O)O)NC1=O [NYAD-37] (H-ISF[S5]EIL[S5]YYGESGS-NH2; staple (Z) 4-8; N-terminus and C-terminus assumed) = 8

Reported IC50 of CC[C@H](C)[C@H](N)C(=O)N[C@@H](CO)C(=O)N[C@@H](Cc1ccccc1)C(=O)N[C@@]1(C)CCC/C=C\CCC[C@@](C)(C(=O)N[C@@H](Cc2ccc(O)cc2)C(=O)N[C@@H](Cc2ccc(O)cc2)C(=O)NCC(=O)N[C@@H](CCC(=O)O)C(=O)N[C@@H](CO)C(=O)NCC(=O)N[C@@H](CO)C(N)=O)NC(=O)[C@H](CC(C)C)NC(=O)[C@H](CC(C)C)NC(=O)[C@H](CCC(=O)O)NC1=O [NYAD-35] (H-ISF[S5]ELL[S5]YYGESGS-NH2; staple (Z) 4-8; N-terminus and C-terminus assumed) : 4.51
